system: HepG2 cells; conditions: read-out: Cell toxicity counterscreen HepG2, CC50
test-readout: CC50

Query block: # get_value(readout= CC50, system= HepG2 cells) for CC1=C[C@H]2O[C@@H]3[C@H](O)[C@@H](O)[C@](C)([C@@]2(CO)C[C@@H]1O)[C@]31CO1 [NCGC00381381-01, T-2 toxin tetraol]
Result block: > 30 µM

* * *

tested on: Vero cells
test-readout: Log AC50 (M)
Report the value in M with no unit label.

Solved entries (count: 6):
>>> print(df.to_string())
                                   molecule  reported
0  CNCCC(Oc1ccc(C(F)(F)F)cc1)c1ccccc1 (centres unmarked)   -4.7827
1  COc1cc([C@@H]2c3cc4c(cc3[C@H](O)[C@H]3COC(=O)[C@@H]23)OCO4)cc(OC)c1OC   -5.5327
2  CN(C)C1CCN(CCCOc2ccc(-c3ccc(C#N)cc3)cc2)C1 (centres unmarked)   -4.4327
3  O=C(O)C1=CO[C@@H](O[C@@H]2O[C@H](CO)[C@@H](O)[C@H](O)[C@H]2O)[C@@H]2C(CO)=CC[C@H]12   -4.5925
4  COc1ccc(CCN(C)CCCC(C#N)(c2ccc(OC)c(OC)c2)C(C)C)cc1OC (centres unmarked)   -4.8199
5  CC(=O)Nc1ccc([C@H](C)C(=O)Nc2ncc(C(C)C)s2)cc1   -5.6327

Query block: # get_value(readout= Log AC50 (M), system= Vero cells) for O=C(/C=C/c1ccccc1)CC(O)CCc1ccccc1 (centres unmarked)
Result block: -4.6327

Query block: # get_value(readout= Log AC50 (M), system= Vero cells) for COC(=O)[C@]12CCC(C)(C)C[C@H]1[C@H]1C(=O)C=C3[C@@]4(C)C=C(C#N)C(=O)C(C)(C)[C@@H]4CC[C@@]3(C)[C@]1(C)CC2
Result block: -6.4327

* * *

test system: wild-type ZIKV (Ugandan MR766 strain) in Vero cells; assay: ZIKV cytopathic effect (CPE) inhibition qHTS assay, CellTiter-Glo readout; type: cell-based, Zika virus; settings: read-out: AC50
Classify: 1.0 when AC50 is strictly less than 2000 nM; 0.0 when AC50 is not.

>>> print(df.to_string())
                                   compound  label
0  CC(=O)OC[C@]12C[C@H](O)C(C)=C[C@H]1O[C@@H]1[C@H](O)[C@@H](O)[C@@]2(C)[C@]12CO2 [NCGC00380760-01]    0.0
1  CC(=O)OC[C@]12C[C@H](OC(=O)CC(C)C)C(C)=C[C@H]1O[C@@H]1[C@H](O)C[C@@]2(C)[C@]12CO2 [NCGC00385002-01]    0.0
2  CC(=O)O[C@@H]1[C@@H](O)[C@H]2O[C@@H]3C=C(C)[C@@H](O)C[C@]3(CO)[C@]1(C)[C@]21CO1 [NCGC00380400-01, NT-2 toxin]    0.0
3  CC(=O)OC[C@]12C[C@H](OC(C)=O)C(C)=C[C@H]1O[C@@H]1[C@H](O)[C@@H](O)[C@@]2(C)[C@]12CO2 [NCGC00381306-01]    0.0

Query block: Would you kindly verify if AC50 of CC1=C[C@H]2O[C@@H]3[C@H](O)C[C@](C)([C@@]2(CO)[C@H](O)C1=O)[C@]31CO1 [NCGC00180572-02, vomitoxin] is strictly less than 2000 nM?
Result block: 1.0
